- study-target: SpMyo1
- experiment: SPOT peptide array binding signal intensity (averaged, normalized) (arbitrary units (background-subtracted, floor 0; scale differs between SH3 domains)); higher = stronger binding of the SH3 domain to the peptide
Here, each record is paired with measured SPOT peptide array binding signal intensity data.
Give the figure only, with no unit attached.

Some binders with recorded SPOT peptide array binding signal intensity:
# binder, measured-result
records = [
    ("GDHPKGPPPPPPPPD", 1570),
    ("MKRSRPSRSIPYTTP", 82.5),
]

Measured SPOT peptide array binding signal intensity, RTIRKLPLMSLSEYF : 7

Measured SPOT peptide array binding signal intensity, VTHRLRISIPGITGR : 1
